test-system: MASP-2 (CCP1-CCP2-SP) (Homo sapiens (Human), UniProt O00187)
Sequence (O00187 445-686): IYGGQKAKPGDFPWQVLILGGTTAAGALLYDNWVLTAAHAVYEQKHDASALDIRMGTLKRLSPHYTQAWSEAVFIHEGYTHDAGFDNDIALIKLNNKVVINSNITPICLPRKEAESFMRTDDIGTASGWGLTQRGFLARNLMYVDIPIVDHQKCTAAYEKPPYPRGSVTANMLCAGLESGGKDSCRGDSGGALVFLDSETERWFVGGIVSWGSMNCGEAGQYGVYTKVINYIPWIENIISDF
assay-protocol: biochemical
Format: biochemical
condition-description: selectivity for MASP-2 inhibition versus thrombin
Structures can show the parent of a compound that is named as a salt.
observed-property: MASP-2 vs. thrombin selectivity

>  <compound>
CC[C@H]1N[C@@H](C(=O)N[C@@H](C)C(=O)NCc2ccc(N)nc2C)C[C@@H]1Cc1ccccc1 [compound 1413, Di-trifluoroacetate salt]

>  <result>
*** (≥25 to <100-fold)

$$$$
>  <compound>
N=C(N)c1ccc(CNC(=O)[C@H](CCC(N)=O)NC(=O)[C@H](N)CCc2ccccc2)cc1 [compound 1335, Di-trifluoroacetate]

>  <result>
*** (≥25 to <100-fold)

$$$$

FYI, the data here is from patent US11584714B2.
